- experimental_protocol: Pharmacokinetic study in rats after oral administration of cinobufacini capsule (UPLC-MS/MS of plasma)
- Type: in vivo, rat
- protocol_conditions: male, Sprague-Dawley, in vivo; rat plasma, oral cinobufacini capsule 0.9 g/kg (low), mean ± SD, n = 6
- Source text: Male Sprague–Dawley rats (weighing 200–220 g) of SPF grade were offered by Sippr/BK laboratory Animal, Corp., Ltd. (Shanghai, China) and fed in the Laboratory Animal Center of the Shanghai University of Traditional Chinese Medicine. […] An Agilent 1290 Infinity series UPLC system was combined with an Agilent 6460 series triple quadrupole mass spectrometer (Agilent Technologies, Santa Clara, CA, United States) to quantify all 13 analytes in an ESI-positive ionization mode. […]
assay_readout: Tmax
Reply with the number and its unit after it.

// known answers, use as guide
C[C@]12CC[C@H](O)C[C@@]1(O)CC[C@@H]1[C@@H]2CC[C@]2(C)[C@@H](c3ccc(=O)oc3)CC[C@]12O = 21.6 min
C[C@]12CC[C@H]3[C@@H](CC[C@]4(O)C[C@@H](O)CC[C@]34C=O)[C@@]1(O)CC[C@@H]2c1ccc(=O)oc1 = 56.4 min
C[C@]12CC[C@H](O)C[C@H]1CC[C@@H]1[C@@H]2[C@H](O)C[C@]2(C)[C@@H](c3ccc(=O)oc3)CC[C@]12O = 15 min
C[C@]12CC[C@H](O)C[C@H]1CC[C@@H]1[C@@H]2C(=O)[C@@H](O)[C@]2(C)[C@@H](c3ccc(=O)oc3)CC[C@]12O = 15 min

Lab book: Tmax of C[C@]12CC[C@H](O)C[C@H]1CC[C@@H]1[C@@H]2CC[C@]2(C)[C@@H](c3ccc(=O)oc3)[C@@H](O)[C@H]3O[C@]132 noted as 49.8 min

###

- experimental_protocol: Pharmacokinetic study in rats after oral administration of cinobufacini capsule (UPLC-MS/MS of plasma)
- Type: in vivo, rat
- protocol_conditions: male, Sprague-Dawley, in vivo; rat plasma, oral cinobufacini capsule 3.6 g/kg (high), mean ± SD, n = 6; read-out: T1/2z (converted)
assay_readout: half-life (min)
Quick reminder: number only, in min, skip the unit.

// known answers, use as guide
C[C@]12CC[C@H](O)C[C@@]1(O)CC[C@@H]1[C@@H]2CC[C@]2(C)[C@@H](c3ccc(=O)oc3)CC[C@]12O = 31.8
C[C@]12CC[C@H](O)C[C@H]1CC[C@@H]1[C@@H]2CC[C@]2(C)[C@@H](c3ccc(=O)oc3)CC[C@]12O = 76.2
C[C@]12CC[C@H](O)C[C@H]1CC[C@@H]1[C@@H]2[C@H](O)C(=O)[C@]2(C)[C@@H](c3ccc(=O)oc3)CC[C@]12O = 53.4
C[C@]12CC[C@H](O)C[C@@]1(O)CC[C@@H]1[C@@H]2CC[C@]2(C)[C@@H](c3ccc(=O)oc3)[C@@H](O)[C@H]3O[C@]132 = 91.8
C[C@]12CC[C@H](O)C[C@H]1CC[C@@H]1[C@@H]2CC[C@]2(C)[C@@H](c3ccc(=O)oc3)[C@@H](O)[C@H]3O[C@]132 = 125
C[C@]12CC[C@H](O)C[C@H]1CC[C@@H]1[C@@H]2[C@H](O)C[C@]2(C)[C@@H](c3ccc(=O)oc3)CC[C@]12O = 18
C[C@]12CC[C@H]3[C@@H](CC[C@]4(O)C[C@@H](O)CC[C@]34C=O)[C@@]1(O)CC[C@@H]2c1ccc(=O)oc1 = 37.8

Please turn your attention to the following entry.
Lab book: half-life of C[C@]12CC[C@H](O)C[C@H]1CC[C@@H]1[C@@H]2C(=O)[C@@H](O)[C@]2(C)[C@@H](c3ccc(=O)oc3)CC[C@]12O noted as 118
